assay: ATG_E_Box_CIS: Attagene CIS-FACTORIAL HepG2 Assay for human Enhancer Box (E-box) (AID 2282936)
test.settings: HepG2 E-box cis-reporter transcription, actives raise or lower the signal
Active and inactive are the calls of the source. The calls were made as follows: active = hit-call score of the fitted dose curve at least 0.9, where 1 is the maximum; inactive = score below 0.9.
Respond using exactly one of the listed classes: TRUE = active, FALSE = inactive

{"columns": ["compound.structure.string", "answer.label"],
 "data": [
  ["C=CC(=O)O[C@H]1C[C@@H]2CC[C@@]1(C)C2(C)C", "TRUE"],
  ["Cc1ccc(S(=O)(=O)N=C=O)cc1", "FALSE"],
  ["CC(C)(CO)COC(=O)C(C)(C)CO", "FALSE"],
  ["c1ccc2cnccc2c1", "FALSE"],
  ["CC(C)CCOCc1ccccc1", "FALSE"],
  ["C=CCNCC=C", "FALSE"],
  ["C=CCCCCCCCCO", "FALSE"]
]}

Switching to the query record.
Query: For CCNc1nc(NC(C)(C)C)nc(OC)n1 , which call appears in the assay record?
Result: FALSE
